Target: human RORγt ligand binding domain (RORγt LBD) (Homo sapiens (Human))
Sequence (P51449 other isoform, or with tags, fused parts or gaps): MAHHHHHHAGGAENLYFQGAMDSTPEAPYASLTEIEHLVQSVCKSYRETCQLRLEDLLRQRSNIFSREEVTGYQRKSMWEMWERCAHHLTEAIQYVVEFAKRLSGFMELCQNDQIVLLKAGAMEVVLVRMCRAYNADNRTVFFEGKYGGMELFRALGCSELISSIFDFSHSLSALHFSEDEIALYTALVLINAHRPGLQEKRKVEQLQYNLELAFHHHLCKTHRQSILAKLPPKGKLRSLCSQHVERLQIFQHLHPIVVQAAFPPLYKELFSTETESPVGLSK
Assay: RORγt ThermoFluor® assay (thermal shift binding)
Settings: ThermoFluor® Assay, Kd
Excerpt: This approach is applicable to a wide variety of systems, and rigorous in theoretical interpretation through quantitation of equilibrium binding constants (KD). The shift in the melting point described as a ΔTm is proportional to the concentration and affinity of the ligand. RORγt ThermoFluor® Assay Construct […]
pKd: −log10 of the molar value.
pKd values, listed per item
Assay readout: pKd

>>> print(df.to_string())
                                   molecule   val
0  CCCn1nc(C(=O)NC[C@]2(O)CC[C@@H](S(C)(=O)=O)CC2)c(Cl)c1-c1ccc(C[C@H](C)C(F)(F)F)cc1OC (single isomer, unassigned)  9.15
1  CCn1nc(C(=O)NC[C@H]2CC[C@H](S(C)(=O)=O)CC2)c(Cl)c1-c1ccc(C[C@H](C)C(F)(F)F)cc1OC (single isomer, unassigned)  9.20
2  Cn1nc(C(=O)NC[C@@]2(O)CC[C@H](S(C)(=O)=O)C[C@@H]2O)c(Cl)c1-c1ccc(CC(C)(C)C(F)(F)F)cc1OC(F)F (relative stereo)  8.05

----------
Documented inhibition at 3 µM across a set of compounds
Molecular target: full-length human RORγt (Homo sapiens (Human))
Assay: RORγt (full-length human) reporter assay, conditions A or B, HEK293T cells
Format: cell-based
Conditions: HEK-293T; 3 μM compound concentration (footnote *); read-out: RORγt (FL) Reporter Assay A or B, % inhibition
Counter-ions that a name gives are not always drawn.

Compound	Value unit	inhibition at 3 µM
CCn1nc(C(=O)NC[C@]2(O)CC[C@@H](S(C)(=O)=O)CC2)c(Cl)c1-c1ccc([C@@](C)(O)CCC(F)(F)F)cc1OC(F)F (single isomer, unassigned)	%	85
CCn1nc(C(=O)NC[C@H]2CC[C@H](S(C)(=O)=O)C[NH+]2CC(=O)ON)c(Cl)c1-c1ccc(CC(C)(C)C(F)(F)F)cc1OC(F)F (stereo in doubt) [Example 64, Trifluoroacetic Acid Salt]	%	119
CCn1nc(C(=O)NC[C@H]2CC[C@@H](S(C)(=O)=O)CN2)c(Cl)c1-c1ccc(CC(C)(C)C(F)(F)F)cc1OC(F)F (stereo in doubt)	%	90
CCn1nc(C(=O)NC[C@]2(O)CC[C@@H](S(C)(=O)=O)CC2)c(Cl)c1-c1ccc(C2(O)CCC(C(F)(F)F)CC2)cc1OC(F)F (single isomer, unassigned)	%	88
CCn1nc(C(=O)NC[C@@H]2CC[C@H](S(C)(=O)=O)CN2)c(Cl)c1-c1ccc(CC(C)(C)C(F)(F)F)cc1OC(F)F (stereo in doubt)	%	92

----------
Target: full-length human RORγt (Homo sapiens (Human), UniProt P51449)
Sequence (P51449 other isoform, or with tags, fused parts or gaps): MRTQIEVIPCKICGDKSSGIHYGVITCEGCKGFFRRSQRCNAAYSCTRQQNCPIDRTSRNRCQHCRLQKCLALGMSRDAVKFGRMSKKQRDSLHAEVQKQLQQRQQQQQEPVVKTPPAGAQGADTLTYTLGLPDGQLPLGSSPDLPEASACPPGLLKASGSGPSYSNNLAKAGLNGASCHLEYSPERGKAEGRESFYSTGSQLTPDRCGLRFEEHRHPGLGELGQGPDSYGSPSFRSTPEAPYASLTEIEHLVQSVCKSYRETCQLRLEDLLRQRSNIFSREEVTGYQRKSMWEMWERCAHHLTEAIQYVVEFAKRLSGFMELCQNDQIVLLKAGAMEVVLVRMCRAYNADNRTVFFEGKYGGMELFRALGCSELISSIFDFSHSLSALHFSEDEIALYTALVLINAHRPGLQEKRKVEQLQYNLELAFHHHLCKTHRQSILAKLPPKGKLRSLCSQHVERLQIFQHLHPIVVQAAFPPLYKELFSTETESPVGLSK
Assay: RORγt (full-length human) reporter assay, conditions A or B, HEK293T cells
Assay type: cell-based
Details: HEK-293T; 2 μM compound concentration; read-out: RORγt (FL) Reporter Assay A or B, % inhibition
Assay readout: inhibition at 2 µM (%)

In [3]: df
Out[3]:
                                   molecule       assay_readout  value_unit  val
0  CCn1nc(C(=O)NC[C@H]2CC[C@H](S(C)(=O)=O)CC2)c(Cl)c1-c1ccc(OCC2(C)CC2)cc1OC [Example 215]  inhibition at 2 µM           %   80
1  CCn1nc(C(=O)NC[C@H]2CC[C@H](S(C)(=O)=O)CC2)c(Cl)c1-c1ccc(CCCC(F)(F)F)cc1OC [Example 80]  inhibition at 2 µM           %   89
2  CCn1nc(C(=O)NC[C@H]2CC[C@H](S(C)(=O)=O)CC2)c(C#N)c1-c1ccc(CC(C)C(F)(F)F)cc1OC (stereo partly drawn) [Example 123]  inhibition at 2 µM           %   85
